B1: TRIM43 (parent)
chain: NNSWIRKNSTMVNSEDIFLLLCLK

- Variants of: B1
- assay_text: protein stability index of a GFP-peptide fusion (GPS, HEK-293T) (PSI 1-6); higher = more stable;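 note: lentivirally expressed fusions sorted by FACS into six bins by GFP to DsRed ratio, PSI derived from sequencing read proportions per bin multiplied by bin number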
- cond: c terminus: a fixed tail appended
endpoint_name: protein stability index
Respond using a number only.

Examples from the recorded data:
S14Q: 3.26
D16T: 2.47
N8T: 3.13
C22W: 2.66
L21K: 2.58
E15Y: 3.03
T10G: 2.9
C22E: 2.33
K7F: 2.97

--- query ---
query: I would be grateful if you could share the reported protein stability index for N2S .
result: 2.48
